SYSTEM: KRas-mediated phosphorylation of ERK in H358 cells (Homo sapiens, UniProt P01116, G12C)
Construct: pERK HTRF read-out
Sequence (P01116 1-188 isoform P01116-2 G12C): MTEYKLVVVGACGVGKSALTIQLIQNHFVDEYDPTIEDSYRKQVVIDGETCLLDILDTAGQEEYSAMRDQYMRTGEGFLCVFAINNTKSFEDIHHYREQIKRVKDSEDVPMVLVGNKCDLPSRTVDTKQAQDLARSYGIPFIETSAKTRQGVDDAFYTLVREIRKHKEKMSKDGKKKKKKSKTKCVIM
EXPERIMENTAL DETAILS: Inhibition of KRas-mediated phosphorylation of ERK (HTRF), H358 cells
Assay type: cell-based
CONDITION SET: HTRF pERK, 3 h incubation
The following compounds are listed with their measured IC50 values.

- COMPOUND: "N#Cc1c(N)sc2c(F)ccc(-c3c(Cl)cc4c(N5CCC(C(=O)Oc6cccc(Cl)c6)CC5)nc(OC[C@@]56CCCN5C[C@H](F)C6)nc4c3F)c12"
  CENSORING SIGN: "="
  IC50, nM: 32
- COMPOUND: "N#Cc1c(N)sc2c(F)ccc(-c3c(Cl)cc4c(N5CCC(C(=O)N6C7CCC6COC7)CC5)nc(OC[C@@]56CCCN5C[C@H](F)C6)nc4c3F)c12"
  CENSORING SIGN: "="
  IC50, nM: 296
- COMPOUND: "CCc1c(F)ccc2cc(O)cc(-c3ncc4c(N5CCCCC(C(=O)n6ccc(C)n6)C5)nc(OC[C@@]56CCCN5C[C@H](F)C6)nc4c3F)c12 (stereo partly drawn)"
  CENSORING SIGN: "="
  IC50, nM: 34
- COMPOUND: "CN(CCCC(=O)Oc1c(F)cccc1F)c1nc(OC[C@@]23CCCN2C[C@H](F)C3)nc2c(F)c(-c3ccc(F)c4sc(N)c(C#N)c34)c(Cl)cc12"
  CENSORING SIGN: "="
  IC50, nM: 370
- COMPOUND: "CCc1c(F)ccc2cc(O)cc(-c3ncc4c(N5CCCCC(C(=O)n6ccc(C)n6)CC5)nc(OC[C@@]56CCCN5C[C@H](F)C6)nc4c3F)c12 (stereo partly drawn)"
  CENSORING SIGN: "="
  IC50, nM: 88
- COMPOUND: "N#Cc1c(N)sc2c(F)ccc(-c3c(Cl)cc4c(N5CCN(S(=O)(=O)n6ccnn6)CC5)nc(OC[C@@]56CCCN5C[C@H](F)C6)nc4c3F)c12"
  CENSORING SIGN: "="
  IC50, nM: 391
- COMPOUND: "CCc1c(F)ccc2cc(O)cc(-c3ncc4c(N5CCC(C(=O)n6ccc(C)n6)C5)nc(OC[C@@]56CCCN5C[C@H](F)C6)nc4c3F)c12 (stereo partly drawn)"
  CENSORING SIGN: "="
  IC50, nM: 2800
- COMPOUND: "CCc1c(F)ccc2cc(O)cc(-c3ncc4c(N5CCCC(C(=O)n6ccc(C)n6)CC5)nc(OC[C@@]56CCCN5C[C@H](F)C6)nc4c3F)c12 (stereo partly drawn)"
  CENSORING SIGN: "="
  IC50, nM: 3250
- COMPOUND: "CN(CCCC(=O)Nc1ccncc1)c1nc(OC[C@@]23CCCN2C[C@H](F)C3)nc2c(F)c(-c3ccc(F)c4sc(N)c(C#N)c34)c(Cl)cc12"
  CENSORING SIGN: "="
  IC50, nM: 411
- COMPOUND: "Cc1ccn(C(=O)C2CCCN(c3nc(OC[C@@]45CCCN4C[C@H](F)C5)nc4c(F)c(-c5c(I)ccc(N)c5C#N)c(Cl)cc34)CC2)n1 (stereo partly drawn)"
  CENSORING SIGN: ">"
  IC50, nM: 10000
- COMPOUND: "CCc1c(F)ccc2cc(O)cc(-c3ncc4c(N5CCC(C(=O)N6CCCCC6=O)CC5)nc(OC[C@@]56CCCN5C[C@H](F)C6)nc4c3F)c12"
  CENSORING SIGN: "="
  IC50, nM: 7230
- COMPOUND: "Cc1ccn(C(=O)CCCN(C)c2cc(O[C@@H](C)[C@@H]3CCCN3C)nc(-c3cc([C@]4(C)CCCc5sc(N)c(C#N)c54)sn3)n2)n1"
  CENSORING SIGN: "="
  IC50, nM: 3330
